Below, each of the binders is paired with its reported MFI value.
biological target: mouse DLL3 on CHO-K1-mDLL3 cells (mouse) (UniProt O88516); test: FACS, CHO-K1-mDLL3 cells, 4 nM antibody
Sequence (O88516 other isoform, or with tags, fused parts or gaps limits assumed): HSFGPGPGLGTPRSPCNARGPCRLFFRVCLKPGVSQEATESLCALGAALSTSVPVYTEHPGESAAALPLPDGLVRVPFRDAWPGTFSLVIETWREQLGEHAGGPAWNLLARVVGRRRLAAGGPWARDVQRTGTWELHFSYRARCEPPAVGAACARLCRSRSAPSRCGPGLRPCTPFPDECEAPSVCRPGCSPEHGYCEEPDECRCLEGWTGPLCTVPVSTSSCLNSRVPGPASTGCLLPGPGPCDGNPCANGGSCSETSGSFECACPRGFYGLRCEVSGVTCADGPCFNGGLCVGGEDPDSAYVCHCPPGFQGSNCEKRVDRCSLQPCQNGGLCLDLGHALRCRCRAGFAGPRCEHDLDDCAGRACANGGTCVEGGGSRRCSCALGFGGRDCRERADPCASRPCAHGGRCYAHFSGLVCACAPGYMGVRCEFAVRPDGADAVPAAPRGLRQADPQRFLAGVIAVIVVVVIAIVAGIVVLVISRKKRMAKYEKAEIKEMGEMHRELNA
Respond with the bare value in MFI.

Look over these answered cases.
- BINDER: "Hab015VL4VH6a-hFc (scFv, part only; not given: scFv linker and human IgG1 Fc, V domains shown, not shown: another chain or arm of the molecule; a dimerising Fc or GST; small tags and cut ends) VL: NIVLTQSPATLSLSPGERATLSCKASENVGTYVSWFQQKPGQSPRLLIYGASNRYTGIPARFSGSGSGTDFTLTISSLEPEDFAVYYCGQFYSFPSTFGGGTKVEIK VH: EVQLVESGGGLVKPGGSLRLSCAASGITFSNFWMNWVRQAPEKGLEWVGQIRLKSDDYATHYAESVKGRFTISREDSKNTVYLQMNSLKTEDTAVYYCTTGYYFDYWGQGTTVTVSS"
  MFI / MFI: 1260
- BINDER: "Hab015VL4VH1a-hFc (scFv, part only; not given: scFv linker and human IgG1 Fc, V domains shown, not shown: another chain or arm of the molecule; a dimerising Fc or GST; small tags and cut ends) VL: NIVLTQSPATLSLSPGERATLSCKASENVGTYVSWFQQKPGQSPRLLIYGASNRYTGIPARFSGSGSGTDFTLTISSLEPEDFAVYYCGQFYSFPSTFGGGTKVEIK VH: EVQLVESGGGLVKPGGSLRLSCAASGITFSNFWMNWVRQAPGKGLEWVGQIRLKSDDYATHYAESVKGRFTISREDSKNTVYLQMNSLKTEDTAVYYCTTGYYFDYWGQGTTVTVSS"
  MFI / MFI: 1040
- BINDER: "Hab015VL5VH6a-hFc (scFv, part only; not given: scFv linker and human IgG1 Fc, V domains shown, not shown: another chain or arm of the molecule; a dimerising Fc or GST; small tags and cut ends) VL: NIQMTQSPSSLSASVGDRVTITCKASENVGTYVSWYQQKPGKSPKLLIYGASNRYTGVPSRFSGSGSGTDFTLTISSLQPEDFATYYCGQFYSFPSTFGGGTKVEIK VH: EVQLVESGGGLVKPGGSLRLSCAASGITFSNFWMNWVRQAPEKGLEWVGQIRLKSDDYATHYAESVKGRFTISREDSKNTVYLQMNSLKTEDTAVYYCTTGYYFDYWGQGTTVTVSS"
  MFI / MFI: 1230
- BINDER: "Hab015VL5VH1a-hFc (scFv, part only; not given: scFv linker and human IgG1 Fc, V domains shown, not shown: another chain or arm of the molecule; a dimerising Fc or GST; small tags and cut ends) VL: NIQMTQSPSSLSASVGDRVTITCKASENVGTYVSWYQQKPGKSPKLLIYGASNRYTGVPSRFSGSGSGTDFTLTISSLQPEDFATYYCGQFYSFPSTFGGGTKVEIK VH: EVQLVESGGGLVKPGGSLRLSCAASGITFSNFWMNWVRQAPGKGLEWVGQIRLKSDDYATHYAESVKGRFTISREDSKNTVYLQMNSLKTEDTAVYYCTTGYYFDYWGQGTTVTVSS"
  MFI / MFI: 1200

# next binder below
Fill in: MFI of Hab013VL2VH2a-hFc (scFv, part only; not given: scFv linker and human IgG1 Fc, V domains shown, not shown: another chain or arm of the molecule; a dimerising Fc or GST; small tags and cut ends) VL: EIVLTQSPATLSLSPGERATLSCRASKSVSTSGFSYMHWYQQKPGQPPRLLIYLASNLESGIPARFSGSGSGTDFTLTISSLEPEDFAVYYCQHSRELPFTFGQGTKLEIK VH: EVQLVQSGAEVKKPGSSVKVSCKASGYAFSNYWINWVRQAPGQGLEWMGQINPGDGDTIYNSKFKGRVTITADKSTSTAYMELSSLRSEDTAVYYCEREGRNYGDFAYWGQGTTVTVSS is ___
557

These data points were gathered from patent EP4786492A1.
